Numbers sourced from patent US8461328B2.

target: JAK1 (Homo sapiens, UniProt P23458)
Construct: made in house; host or cells: SF9 insect cells (baculovirus)
Sequence (P23458 852-1154): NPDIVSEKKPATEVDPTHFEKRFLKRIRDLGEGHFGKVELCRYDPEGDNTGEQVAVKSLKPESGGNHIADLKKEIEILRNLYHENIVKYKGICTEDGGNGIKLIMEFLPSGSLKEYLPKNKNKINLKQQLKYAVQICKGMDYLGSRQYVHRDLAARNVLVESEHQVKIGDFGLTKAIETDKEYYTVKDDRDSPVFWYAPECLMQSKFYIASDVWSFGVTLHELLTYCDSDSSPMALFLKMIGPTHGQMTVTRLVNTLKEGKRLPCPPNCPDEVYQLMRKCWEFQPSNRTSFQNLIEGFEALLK
test.name: JAK1 inhibition (Table 4)
Assay type: biochemical
recorded.conditions: read-out: JAK1 Ki
Quick list: Ki per entry.
Please state the figure in nM; there is no need to write the unit.

CC(O)c1nc2cnc3[nH]ccc3c2n1C1CC2CCC1O2 (single isomer, unassigned) [Example 936]: 79.8
CS(=O)(=O)NCCc1nc2cnc3[nH]ccc3c2n1[C@@H]1CCCOC1: 49.5
c1cncc(CN2CCC(n3nnc4cnc5[nH]ccc5c43)CC2)c1: 7.53
C[C@@H](O)c1nc2cnc3[nH]ccc3c2n1[C@@H]1CCNC1: 167

Incoming: Fill blank: measured Ki of the molecule `CCOC(=O)N1CC[C@H](n2c([C@@H](C)O)nc3cnc4[nH]ccc4c32)C1` is ____.
Outgoing: 65.1
